# Test: yeast display, Sf9 membrane polyspecificity reagent, FACS + sequencing; frameworks hold sequencing errors
Experimental endpoint: polyreactivity (PSR sort gate)

These solved cases illustrate the format of a correct answer.
QVQLVESGGGLVQARGSLRLSCAASGSTFAYNAMGWYRKAPGKERELVADITSTGTSTYADSVKGRFTISRDNAKNTVYLQMNSLKPEDTAVYYCNADYDSTYVGYDYWGQGTQVTVSS :: low polyreactivity
QVQLVESGGGLVQAGGSLRLSCAASGSIFAWYALGWYRQAPGKERELVADITQSGGSTYYADSVKGRFTISRDNAKNTVYLQMNSLKPEDTAVYYCVDYWYNYLQSGWEDDYWGQGTQVTVSS :: low polyreactivity
QVQLEESGGGLVQAGGSLRLSCAASGSTLTRNAMGWYRQAPGKERELVAAITSGGRTKYADSVKGRFTISRDNAKNTVYLQMNSLKPEDTAVYYCAKGGPPGQRGYDYWGQGTQVTVSS :: high polyreactivity
QVQIVESGGGLVQAGGSLRLSCDASGSTFVRYAMGWYRQAHGKERELVAAISYRGGSTYYADSVKGRFTISRDNAKNTVYLQMNSLKPEDTAVYYCAAESRHVEGEYWGQGTQVTVSS :: high polyreactivity

Now look at this entry.
In: Give the value of polyreactivity (PSR sort gate) reported for the following: QFQLVESGGGLVQAGGSLRLSCAASGFTFRRVTAIGWYRQAPGKERELVAGINSGDITYYADSVKGRFTFSRDNAKNTVYLQMNSLIPEDTAVYYCAARVVYGYGHNDYWGQGTQVTVSS
Out: low polyreactivity

---

# Test: yeast display, Sf9 membrane polyspecificity reagent, FACS + sequencing; frameworks hold sequencing errors
Experimental endpoint: polyreactivity (PSR sort gate)

These solved cases illustrate the format of a correct answer.
QVQLVESGGGVVQAGGSLRLSCAATGFTFAANTKGWYRQPPGKERELVADISGRGDRTSYADSVKGRFTISRDNAKYTVYLQINSLKPEDTAVYYCAVDIFYYSNVHYYYWGQGTQVTVSS :: low polyreactivity
QVQLVESGGGLVQAGGSLRFSCAASGSIFSVYAMGWYRQAPGKEREWVAAITSGTYTYADSVKGRFTISRDNAKNSVYLQMNSLKAEDTAVYYCAAESGSPGYYYWGQGTQVTVST :: low polyreactivity
QVQLVESGGGLVQAGGSLRLSCAASGSILYVYAMGWYRQAPGKERELVAVITSGGSTNYADSVKGRFTISRDNAKNTVYLQMNSLKPEDTAVYYCAADPYSVYGGDYWGQGTQVTLSS :: low polyreactivity
QVQLVESGGGLVQAGGSLRLSCAASGFIFYKNAMGWYRQAAGKERELVASITRTGDSTNYADSVKGRFTISRDNPKNTVYLQLNSLKPEDTAVYYCAKVLRRWPDPAGGMDYWGQGTQVTVSS :: high polyreactivity
QVQLVESGGRLVQAGGSLRLSCAASGRTFKKYAMGWYRQAPGKERELVAAITGSGGSTYYADSVKGRFTISRDNAKNTVYLQMNSLKPEDTAVYYCAAYAYGVWHSQDGGNFWGQGTQVTVSS :: low polyreactivity

Hi! Can you tell me polyreactivity (PSR sort gate) for each of these sequences?
1. QVHLVESGGGLVQAGGSLRLSCAASGSTILFYAMGWYRQAPGKERELVATISRGGSTYYADSVKGRFTISRDNAKNTVYLEMNSLKPEDTAVYYCAARATRVTIAPRYGYWGQGTQVTVSS
2. QLQLVESGGGLVQAGGSLRLSCAASGSIFHGNVMGRYRHAPGKEMELVAAISSSGGSTYYADSVKGRFTISRDIAKNTVYLQMNSLKPEDNAVYYCAARNRYWGQGTQVTVSS
3. QVQLVESGGGLVQAGGSLRLSCAASGSIFVSYAMGWYRQAPGKERELVAAITYSGGRTYYADSVKGRFTISRDNAKNTVYLQMNCLKPEDTAVYYCAKRVSYPVRFPYFSYDYWGQGTQVTVSS
4. QVQLVESGGGLVQAGGSLRLSSAASGRIFAHNAMGWSRQAPGKERELVAAITWSGGSTYYADSVKGRFTISRDNAKNTVYLQMNSLKPEDTAVYYCNTDSHGHLYIYWGQGNQVTVSS

Out:
1. low polyreactivity
2. high polyreactivity
3. low polyreactivity
4. low polyreactivity

Hi! Can you tell me polyreactivity (PSR sort gate) for each of these sequences?
1. QGQLVESGGGLVQAGGSLRLSCAASGSTFTSSAMGWSRQGPGKERELVAAISRSGGRTYYADSVKGRFTISRDNAKTTVYLQMNSQKPEDTAVYYCAADRSRWGQGTQVTVSS
2. QVQLVESGGGLVQAGGSLRLSCAASGSIFYPYAMGWYRQAPGKERELVAAISSGGRTYYADSVKGRFTISRDNAKNTVYLQMNSLKPEDTAVYYCAARPKAYGRPPGYYWGQGTQVTVSS

Out:
high polyreactivity
high polyreactivity
